tested on: Jurkat cells; assay: Tacrolimus dose response of FKBP13-AcGFP-mCherry constructs stably transduced into Jurkat cells, GFP MFI by flow cytometry; assay type: cell-based; conditions: tacrolimus; FIG. 38
MEASUREMENT KIND: FC
One number for each entry.

Task: For FKBP-291: FKBP13 DRD-AcGFP construct of Table 10 (protein, Description of sequence: Construct Name: FKBP-291; Mutation(s): Q72R Q84E A117W V85R E130N) HCPIKSRKGDVLHMHYTGKLEDGTEFDSSLPRNQPFVFSLGTGERIKGWDQGLLGMCEGEKRKLVIPSELGYGERGWPPKIPGGATLVFNVELLKIER , what is its reported FC?
Result: 53.37
